Data origin: a melting point compilation (Tetko et al.; mined from patent text by program, amines drawn as free bases though some values may be those of a salt)

METRIC: melting point

Some compounds with known melting point results, for comparison:
COc1ccc(C(=O)C2=C(c3ccc(OC)cc3)CCc3cc(OC)ccc32)cc1: 172 to 173 °C
CC(C)(C)C(=O)OC1=CC(=O)C(=O)c2ccccc21: 125 to 126 °C
COc1ccc(Br)c(C(=O)NNS(=O)(=O)c2ccccc2)c1: 150 to 152 °C
Cc1n[nH]cc1-c1cccc2c1nnn2-c1ccnc(NC2CCN(S(C)(=O)=O)CC2)n1: 231 to 232 °C
Cn1c(NCCOS(C)(=O)=O)cc(=O)n(C)c1=O: 169 to 170 °C
Cc1cccc(S(=O)(=O)n2ccc(Br)c2)c1C#N: 98 to 100 °C

Documented melting point of `CCCCCCCCCCCCCCCCCCOc1cc(OCCOCCOCCOCC)cc(N(CC(=O)O)CC(=O)O)c1` : 76 to 78 °C

Sample CCC(C(=O)O)N(C(=O)c1cnn(-c2ccc(F)cc2)c1)c1ccc(OCC(C)(C)C)c(C#N)c1 (centres undefined) ; melting point observed: 153 to 155 °C

// sample Cc1cc(SC2=C(O)CC(CCc3ccncc3)(C(C)C)OC2=O)c(C(C)(C)C)cc1CO (centres undefined) , its melting point was 140 to 155 °C

* * *

Reported values of melting point for individual entries

Reference set (8 entries):
O=[N+]([O-])c1cc(Cn2nnnc2Sc2ccccc2)cc([N+](=O)[O-])c1: 156 to 158 °C
CCCOc1ccc(S(=O)(=O)N2CCN(CC)CC2)cc1-c1nc2cc3nc[nH]c3cc2c(=O)[nH]1: 194 to 196 °C
O=C(O)Cn1c(=O)c2cc(Cc3ncc[nH]3)ccc2n(Cc2ccc(Cl)c(Cl)c2)c1=O: 243 to 244 °C
COC(=O)c1cnc(S)n1C1CCCC2CCCCC21 (stereo unspecified): 84 to 86 °C
CC(=O)Nc1ccc([N+](=O)[O-])s1: 226 °C
ClCc1ccc2c(c1)Cc1cccnc1O2: 172 to 174 °C
CC1(C)C(=O)Nc2cc3[nH]c(O)nc3cc21: > 300 °C
Cc1nnc(-c2ccc3occ(-c4cccc(F)c4F)c3c2)o1: 112 to 113 °C

melting point in this record for `CCCc1cc(C(O)(CC)CC)ccc1-c1cc(O)ccc1CC` : 130 °C

Note to self: melting point recorded for `O=[N+]([O-])c1ccc(S(=O)(=O)OS(=O)(=O)c2ccc([N+](=O)[O-])cc2)cc1` was 171 to 172 °C

Field melting point (entry CC(=O)OCC(OC(C)=O)C1OC(OC(C)=O)(C(=O)O)CC(OC(C)=O)C1OC(C)=O (stereo unspecified) ) reads 132 to 133 °C

# melting point (compound: CC(C)C1NC(=O)OC1C(F)(F)F (stereo unspecified) ) is 71 to 72 °C

In plain terms, O=C1Nc2ccc(C(F)(F)F)cc2C1c1ncnc2c1cnn2C1CCCC1 (stereo unspecified) has a documented melting point of > 300 °C

* * *

Each entry below carries its reported melting point.

N#COc1ccc(OC#N)cc1: 117 to 119 °C
CCCCOCCCNC(c1ccccc1)C(O)c1ccccc1 (stereo unspecified): 82 to 84 °C
Cc1cccc2c1O[C@@H](CN1CCC(CNC(=O)c3cccnc3N)CC1)CO2: 56 to 58 °C

Consider O=C1NC(c2ccccc2)Oc2ccccc21 (stereo unspecified) . Its measured melting point is 157 to 160 °C

The value of melting point measured for the molecule `NCCN1CCOC(c2ccccc2)(c2ccccc2)CC1` turned out to be 75 to 80 °C

The molecule Cc1cccc(C)c1N(C(C)C(=O)NN)S(C)(=O)=O (stereo unspecified) showed melting point equal to 115 to 118 °C

Just so you know, measured melting point for Cc1ccnc2c1C(=NNC(=N)N)CC(c1cc(Cl)sc1Cl)C2 (stereo unspecified) came out at 250 to 251 °C

Recorded melting point (molecule `CCOC(=O)NC1(c2ccc(C(C)C)cc2OC)C(=O)c2ccccc2C1=O` ): 149 to 150 °C

Note to self: melting point recorded for `CS(=O)(=O)c1ccc(C(=O)c2cnoc2C2CC2)c(Cl)c1` was 116 °C

For reference, reported melting point for `CCOC(=O)CC(=O)C=CNc1cc(C)no1` stands at 93 to 95 °C

melting point in this record for CCOP(=O)(CC(Cc1ccccc1)NS(=O)(=O)c1ccc(C)cc1)OCC (stereo unspecified) : 86 to 89 °C
